From: ChEMBL document CHEMBL1138361

- testDescription: Oral bioavailability in Beagle dog at 2.0 mg/kg, po
- Type: ADME, organism-based, Canis lupus familiaris
- experimentalContext: in vivo
quantityName: bioavailability (%)
Expressed in %, but write only the number.

// worked examples, bioavailability included
## Task What measured bioavailability goes with N#Cc1ccc(C(=O)N2CCN(c3ccc(OC4CCN(C5CCC5)CC4)cc3)C(=O)C2)cc1.O=CO ?
## Result 69

## Task What value of measured bioavailability is listed for C[C@@H]1CCCN1CCCOc1ccc(N2CCN(C(=O)c3ccc(F)cc3F)CC2=O)cc1.O=CO ?
## Result 100

Now consider a different compound.
## Task What value of bioavailability has been recorded for this entry: O=C(c1ccc(F)cc1)N1CCN(c2ccc(OCCCN3CCCCC3)cc2)C(=O)C1.O=CO
## Result 86
